test system: P. falciparum stage V gametocytes; parameters: BacTiter-Glo ATP luminescence viability of purified stage V gametocytes in 384-well plates, per cent inhibition versus DMSO; conditions: 48 h, 5 µM; inhibitor
Among all 13,000 compounds or so, about 3,200 (25%) showed an effect of 50% or more. The list shows a part of the results.
For each record, write down the corresponding % Inhibition.
Note: unit % is implicit; provide only the numeric part.

Request: Kindly state the measured % Inhibition obtained for Cc1cc(N)c2cc(NC(=O)/C=C/c3ccccc3Cl)ccc2n1 [TCMDC-139459] with P. falciparum stage V gametocytes.
Response: 113.2

Request: Now consider Nc1ncc(-c2ccc(S(=O)(=O)Nc3ccc(C(=O)N[C@@H](CCC(=O)O)C(=O)O)cc3)cc2)c(=O)[nH]1 [TCMDC-137342] .
Response: -1.262

Request: Try the compound O=C(/C=C/c1ccccc1Cl)Nc1ccc(Br)c(OCCN2CCCCC2)c1 [TCMDC-140959]
Response: -53.57

Request: Next compound up: Cc1cccc2[nH]c(-c3cccc(-c4ccc(CNCc5ccccc5)cc4)c3)nc12 [TCMDC-132710]
Response: 64.93

Request: Entry CNCCNCc1ccc(-c2ccc(-c3nc4c(C)cccc4[nH]3)s2)cc1 [TCMDC-132828] please
Response: 96.61

Request: What do you get for Cc1cccc2[nH]c(-c3cccc(-c4cccc(CNCc5ccccc5)c4)c3)nc12 [TCMDC-132713] ?
Response: 10.68

Request: Also CC1CCCCN1CCCNc1ncc2c(-c3ccc(NC(=O)Nc4cc(C(F)(F)F)ccc4F)c(F)c3)nn(C)c2n1 (centres unmarked) [TCMDC-141608] ?
Response: 97.41

Request: How about CCOc1ccccc1C=CC(=O)Nc1ccc2nc(N3CCN(C)CC3)cc(C)c2c1 [TCMDC-123801] ?
Response: -1.147

Request: What about this compound? Nc1cccc(C=CC(=O)Nc2ccnc3ccccc23)c1 [TCMDC-139290]
Response: 5.125

Request: Entry Cc1ccc2nc(NC#N)[nH]c2c1 [TCMDC-131394] please
Response: 6.156

Request: Then what about the compound CN1Cc2cc(NC(=O)/C=C/c3ccccc3Cl)ccc2C(C)(C)C1 [TCMDC-139315] ?
Response: 78.19

Request: Please do the same for Cc1cccc2[nH]c(-c3ccc(-c4ccc(CN5CCN(CCN6CCOCC6)CC5)cc4)s3)nc12 [TCMDC-133930] as well.
Response: 30.2

Request: Also check CCN(CC)CCCNc1ncc2c(-c3ccc(NC(=O)Nc4cc(C(F)(F)F)ccc4F)c(F)c3)nn(C)c2n1 [TCMDC-141609]
Response: 106.5

Request: Same thing, different compound: Cc1cccc2[nH]c(-c3ccc(-c4ccc(CNCc5ccccc5)cc4)s3)nc12 [TCMDC-132709]
Response: -2.299

Request: What do you have for O=C(c1ccco1)N1CCN(c2nc(-c3ccc(Cl)cc3)nc3ccccc23)CC1 [TCMDC-124753] ?
Response: 14.1

Request: Then Cc1cccc2[nH]c(-c3cccc(-c4cccc(CNC(C)C)c4)c3)nc12 [TCMDC-132738] ?
Response: -9.933

Request: What would you report for Cc1cccc2[nH]c(-c3ccc(-c4ccc(CNCCN5CCNCC5)cc4)s3)nc12 [TCMDC-132870] ?
Response: 77.87

----------
tested on: P. falciparum stage V gametocytes; set-up: BacTiter-Glo ATP luminescence viability of purified stage V gametocytes in 384-well plates, per cent inhibition versus DMSO; settings: 48 h, 5 µM; inhibitor
The campaign covered roughly 13,000 compounds. About 3,200 (25%) showed an effect of 50% or more. This is one part of the list.
For each record, write down the corresponding % Inhibition.
Express it in %; write the number only.

Request: Entry under review: NC(=O)c1cccc(Nc2nccc(Nc3ccc(Oc4cccc(Cl)c4)c(Cl)c3)n2)c1 . Reported % Inhibition?
Response: -22.97

Request: Lookup Clc1cccc(CNc2nc(NCCc3cnc[nH]3)nc(NC3CCCCC3)n2)c1
Response: 0.07512

Request: Also need CCn1c(-c2nonc2N)nc2c(-c3cccc(Cl)c3)ncc(OCCCNCCc3cnc[nH]3)c21 , thanks.
Response: 106.8

Request: Proceed to CCCCOc1ccc(/C=C/c2ccc(-c3c(C)[nH]c(C)c(Cl)c3=O)s2)cc1
Response: 60.63

Request: Now try O=C(NCCc1cccc(F)c1)c1ccc(N2CCN(c3ccncc3)CC2)cn1 .
Response: 19.99

Request: Can you handle CCNc1cc(C(=O)N[C@@H](Cc2ccccc2)[C@H](O)CNCc2cccc(OC)c2)c(OC)c(N2CCCCS2(=O)=O)c1 next?
Response: -8.62

Request: Again, but for CNC(=O)NC1=NC(C)(C)N(OCc2ccc(Cl)c(Cl)c2)C(NC(=O)NC)=N1
Response: 10.36

Request: Also, COc1cccc(OC2CCN(C(=O)c3ccc(-c4ccc(N5CCCC5=O)cc4C)cc3)CC2)c1 please.
Response: 29.3

Request: Likewise for Cc1cc2ncc(C(N)=O)c(Nc3ccc(N4CCOCC4)cc3)c2cc1S(C)(=O)=O.Cl ?
Response: -8.581

Request: Then CCOC(=O)c1c(-c2ccccc2)[nH]c2c(sc3ccccc32)c1=O ?
Response: 7.736

Request: Entry CC1(C)N=C(N)NC(NOCc2ccc(Cl)c(Cl)c2)=N1 please
Response: -8.519

Request: Follow-up entry: CCOC(=O)c1c(SCc2cccc(F)c2F)[nH]c2ccccc2c1=O
Response: 58.44

Request: Next record, please: CNc1nc(NN=Cc2ccccc2Cl)nc(Nc2cccc(C(F)(F)F)c2)n1
Response: -11.55

Request: How about N#Cc1c(-c2ccccc2)cn2c1[nH]c(=O)c1ccccc12 ?
Response: 14.43

Request: Try the molecule Cc1ccc(-c2cc3nc4c(c(NCCCn5ccnc5)n3n2)CCC4)cc1
Response: 12.49

Request: What do we get for c1ccc(CN2CCC(NCc3ccccc3-c3ccc(CNC4CCCC4)cc3)CC2)cc1 ?
Response: 106.4

Request: Again, but for CCOc1ccc2nc(N(CCCn3ccnc3)C(=O)C=Cc3cccs3)sc2c1
Response: -19.53

----------
Could you please report measured % Inhibition for the items listed next?
tested on: P. falciparum stage V gametocytes; parameters: BacTiter-Glo ATP luminescence viability of purified stage V gametocytes in 384-well plates, per cent inhibition versus DMSO; conditions: 48 h, 5 µM; inhibitor
Hit rate of the full screen: of about 13,000 compounds, about 3,200 (25%) showed an effect of 50% or more. The list shows a part of the results.

Request: Request the reported % Inhibition associated with Brc1cccc(Nc2nccc(Nc3ccc(Oc4ccccc4)cc3)n2)c1
Response: 9.5%

Request: Another compound to look at: Cc1cccc2[nH]c(-c3ccc(-c4cccc(NC(=O)NCc5ccccc5)c4)cc3)nc12
Response: -12.85%

Request: Try CN1CCN(CCCNCc2cccc(Nc3nccc(Nc4ccc(Oc5ccccc5)cc4)n3)c2)CC1 next.
Response: 109.5%

Request: // same read-out, input: Cc1ccnc(NC(=O)c2cc(-c3cccc([N+](=O)[O-])c3)nc3onc(C)c23)c1
Response: 3.347%

Request: What do you have for O=C(NCCN1CCCC1)c1cccc(Nc2nccc(Nc3ccc(Oc4ccccc4)cc3)n2)c1 ?
Response: -15.16%

Request: Now this one: CN1CCN(Cc2cccc(Nc3nccc(Nc4ccc(Oc5ccccc5)cc4)n3)c2)CC1
Response: -13.87%

Request: Also check O=C(NCCCN1CCCCC1)c1ccc(Nc2nccc(Nc3ccc(Oc4ccccc4)cc3)n2)cc1
Response: -10.89%

Request: Now give it for O=C(NCCCN1CCOCC1)c1cccc(Nc2nccc(Nc3ccc(Oc4ccccc4)cc3)n2)c1 too.
Response: 68.84%

----------
Answer each item with its documented % Inhibition.
system: P. falciparum stage V gametocytes; set-up: BacTiter-Glo ATP luminescence viability of purified stage V gametocytes in 384-well plates, per cent inhibition versus DMSO; conditions: 48 h, 5 µM; inhibitor
In all, about 13,000 compounds went through this assay and about 3,200 (25%) showed an effect of 50% or more. This is one part of the list.
Reply numerically in %, unit not repeated.

Request: Record COc1ccc(-c2ccc(NC(=O)c3cccc(Cl)c3)cc2)cc1CN1CCCC1 : what is its % Inhibition with P. falciparum stage V gametocytes?
Response: 40.62

Request: Record: O=C(Nc1cccc(-c2ccc(CN3CCNCC3)cc2)c1)c1cccc(Cl)c1
Response: -31.19

Request: Field entry: O=C(Nc1cccc(-c2cccc(CN3CCCC3)c2)c1)c1cccc(Cl)c1
Response: 85.38

Request: Cool, now COc1ccc(-c2cccc(NC(=O)c3cccc(Cl)c3)c2)cc1CN1CCCN(C)CC1
Response: -18.61

----------
test system: P. falciparum stage V gametocytes; design: BacTiter-Glo ATP luminescence viability of purified stage V gametocytes in 384-well plates, per cent inhibition versus DMSO; conditions: 48 h, 5 µM; inhibitor
The whole screen tested about 13,000 compounds, of which about 3,200 (25%) showed an effect of 50% or more. The list shows a part of the results.
endpoint: % Inhibition (%)
Give the value in % but do not write % after it.

Request: Consider the compound shown here: COc1ccc2nccc([C@@H](O)CN3CCC(NCc4cnc5snnc5c4)C(F)C3)c2c1 (stereo partly shown) What is its recorded % Inhibition?
Response: 25.48

Request: What about CS(=O)(=O)c1ccc(-c2cc(C(F)(F)F)nc(N[C@@H]3CCCC[C@H]3OCc3ccccc3)n2)cc1 ?
Response: -4.461

Request: Now give it for O=S(=O)(NC1CCN(c2ccnc3cc(Cl)ccc23)C1)c1cccs1 (stereo not shown) too.
Response: 1.762

Request: // next record Cc1cccc2nc(-c3cccc(-c4ccc(C(=O)NCc5nccn5C)cc4)c3)[nH]c12
Response: 7.308

This collection of values is drawn from paper PMC4552634.
